Listed here: items and their measured yeast fitness.
B1: tRNA (parent)
chain: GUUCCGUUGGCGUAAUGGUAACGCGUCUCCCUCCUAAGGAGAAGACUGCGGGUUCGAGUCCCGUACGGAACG

# Variants of: B1
# Procedure Details: yeast fitness relative to wild type (ratio to wild type); higher = fitter; tRNA-Arg(CCU), competitive growth, 37 C, YPD
Variants at the floor of the assay were thinned out.
Enter a number only.

C29G C46A
0.661
U54G A65C
0.606
C5A C11A A42U U53A
0.616
U2C C5G C46U
0.872
A14U A42G
0.529

Lookup: For U2C C5A A40G , write its yeast fitness.
Found: 0.563

Lookup: For U3C U59C A65C A69G , write its yeast fitness.
Found: 0.593

Lookup: For U2C C27U U28G C33G A36G , write its yeast fitness.
Found: 0.544

Lookup: For C31A C49U , write its yeast fitness.
Found: 0.867

Lookup: For C5U C66A , write its yeast fitness.
Found: 0.729

Lookup: For A43U G44A C46A , write its yeast fitness.
Found: 0.654

Lookup: For C31U G41U , write its yeast fitness.
Found: 1.03
